# Experiment: in vivo
# Study conditions: male, New Zealand White Hra:(NZW)SPF, rabbit, plasma, intramuscular, 0.3 mg, Concentration (ng/mL), plasma epinephrine, Group 7, dose 0.3 mg, subject 701, male, Day 1, hour 0.033, LLQ 1 ng/mL
Property: concentration at 0.033 h

Request: Using the record for CNC[C@H](O)c1ccc(O)c(O)c1 [Epinephrine] , state its measured concentration at 0.033 h.
Result: 2.75 ng/mL

###

# Experiment: in vivo
# Study conditions: male, New Zealand White Hra:(NZW)SPF, rabbit, plasma, intramuscular, 0.3 mg, Concentration (ng/mL), plasma epinephrine, Group 7, dose 0.3 mg, subject 703, male, Day 1, hour 0.083, LLQ 1 ng/mL
Property: concentration at 0.083 h (ng/mL)
Answers are plain numbers, in ng/mL.

Request: Output concentration at 0.083 h of CNC[C@H](O)c1ccc(O)c(O)c1 [Epinephrine]
Result: 6.6

###

# Experiment: in vivo
# Study conditions: male, New Zealand White Hra:(NZW)SPF, rabbit, plasma, intramuscular, 0.3 mg, Concentration (ng/mL), plasma epinephrine, Group 7, dose 0.3 mg, subject 701, male, Day 1, hour 0.125, LLQ 2 ng/mL
Property: concentration at 0.125 h (ng/mL)
Give bare numbers, in ng/mL.

Request: Please supply the value of reported concentration at 0.125 h for the item CNC[C@H](O)c1ccc(O)c(O)c1 [Epinephrine]
Result: 5.73

###

# Experiment: in vivo
# Study conditions: male, New Zealand White Hra:(NZW)SPF, rabbit, plasma, intramuscular, 0.3 mg, Concentration (ng/mL), plasma epinephrine, Group 7, dose 0.3 mg, subject 701, male, Day 1, hour 0.75, LLQ 2 ng/mL
Property: concentration at 0.75 h (ng/mL)
Answers are plain numbers, in ng/mL.

Request: Determine its reported concentration at 0.75 h: CNC[C@H](O)c1ccc(O)c(O)c1 [Epinephrine]
Result: 2.84

###

# Experiment: in vivo
# Study conditions: male, New Zealand White Hra:(NZW)SPF, rabbit, plasma, intramuscular, 0.3 mg, Concentration (ng/mL), plasma epinephrine, Group 7, dose 0.3 mg, subject 701, male, Day 1, hour 0.25, LLQ 2 ng/mL
Property: concentration at 0.25 h (ng/mL)
Numbers only, in ng/mL.

Request: For CNC[C@H](O)c1ccc(O)c(O)c1 [Epinephrine] , write its concentration at 0.25 h.
Result: 2.44

###

# Experiment: in vivo
# Study conditions: male, New Zealand White Hra:(NZW)SPF, rabbit, plasma, intramuscular, 0.3 mg, Concentration (ng/mL), plasma epinephrine, Group 7, dose 0.3 mg, subject 703, male, Day 1, hour 0.125, LLQ 1 ng/mL
Property: concentration at 0.125 h (ng/mL)
Give bare numbers, in ng/mL.

Request: Tell me concentration at 0.125 h reported for CNC[C@H](O)c1ccc(O)c(O)c1 [Epinephrine]
Result: 3.53

###

# Experiment: in vivo
# Study conditions: male, New Zealand White Hra:(NZW)SPF, rabbit, plasma, other: sublingual/buccal tablet, 35 mg, Concentration (ng/mL), plasma epinephrine, Group 2, dose 35 mg, subject 306, male, Day 1, hour 1, LLQ 2 ng/mL
Property: concentration at 1 h (ng/mL)
One number for each entry, in ng/mL.

Request: Return value of concentration at 1 h for input CNC[C@H](O)c1ccc(O)c(O)c1 [Epinephrine] , no commentary.
Result: 10.6
